Entries and their IC50 values follow.
Target: KRAS G13D (Homo sapiens (Human), UniProt P01116+P62937, G13D)
Sequence (P01116-2 other isoform, or with tags, fused parts or gaps G13D): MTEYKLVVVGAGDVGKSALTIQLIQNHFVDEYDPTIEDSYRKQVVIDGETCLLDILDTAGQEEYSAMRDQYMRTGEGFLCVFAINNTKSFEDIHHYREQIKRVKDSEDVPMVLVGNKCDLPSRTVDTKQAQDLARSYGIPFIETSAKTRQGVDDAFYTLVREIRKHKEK
Sequence (P62937 whole entry): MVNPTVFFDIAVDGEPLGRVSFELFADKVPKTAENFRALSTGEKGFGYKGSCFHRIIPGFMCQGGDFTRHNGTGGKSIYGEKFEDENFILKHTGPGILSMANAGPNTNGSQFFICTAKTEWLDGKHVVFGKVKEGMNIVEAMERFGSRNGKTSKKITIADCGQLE
Assay: Ras-Raf (BRAF RBD) disruption / FRET / MOA assay, KRAS G13D
Format: biochemical
Settings: read-out: IC50* KRAS G13D FRET data

Please review the entries below; each comes with its answer.
Query: Given the entry CCn1c(-c2cccnc2[C@H](C)OC)c2c3cc(ccc31)-c1cccc(c1)C[C@H](NC(=O)[C@H](C(C)C)N(C)C(=O)[C@H]1CCN(C(=O)C#CC3(N(C)C)CN(C)C3)C1)C(=O)N1CCC[C@H](N1)C(=O)OCC(C)(C)C2 (atropisomer, axis not shown) , what IC50 was observed with KRAS G13D (Homo sapiens (Human), UniProt P01116+P62937, G13D)?
Response: 1000 to 10000 nM

Query: Given the entry C#CCn1c(-c2cccnc2[C@H](C)OC)c2c3cc(ccc31)-c1cccc(c1)C[C@H](NC(=O)[C@H](C(C)C)N(C)C(=O)[C@H]1CCN(C(=O)C=C)C1)C(=O)N1CCC[C@H](N1)C(=O)OCC(C)(C)C2 (atropisomer, axis not shown) , what IC50 was observed with KRAS G13D (Homo sapiens (Human), UniProt P01116+P62937, G13D)?
Response: > 10000 nM

Query: Given the entry C=CC(=O)N1CCC[C@H]2CN(C(=O)N(C)[C@H](C(=O)N[C@H]3Cc4nc(cs4)-c4ccc5c(c4)c(c(-c4cccnc4[C@H](C)OC)n5CC)CC(C)(C)COC(=O)[C@@H]4CCCN(N4)C3=O)C(C)C)C[C@H]21 (atropisomer, axis not shown) , what IC50 was observed with KRAS G13D (Homo sapiens (Human), UniProt P01116+P62937, G13D)?
Response: 1000 to 10000 nM

Query: Given the entry CCn1c(-c2cccnc2[C@H](C)OC)c2c3cc(ccc31)-c1cccc(c1)C[C@H](NC(=O)[C@H](C(C)C)N(C)C(=O)[C@H]1CCN(C(=O)C#CC3(N(C)C)CCOCC3)C1)C(=O)N1CCC[C@H](N1)C(=O)OCC(C)(C)C2 (atropisomer, axis not shown) , what IC50 was observed with KRAS G13D (Homo sapiens (Human), UniProt P01116+P62937, G13D)?
Response: > 10000 nM

More entries:
Query: Given the entry C=CC(=O)N(C)CCN1CCN(C(=O)N(C)[C@H](C(=O)N[C@H]2Cc3cccc(c3)-c3ccc4c(c3)c(c(-c3cccnc3[C@H](C)OC)n4CC)CC(C)(C)COC(=O)[C@@H]3CCCN(N3)C2=O)C(C)C)C[C@@H]1C (atropisomer, axis not shown) , what IC50 was observed with KRAS G13D (Homo sapiens (Human), UniProt P01116+P62937, G13D)?
Response: 1000 to 10000 nM

Query: Given the entry CCn1c(-c2cnccc2[C@H](C)OC)c2c3cc(ccc31)-c1cc(O)cc(c1)C[C@H](NC(=O)[C@H](C(C)C)N(C)C(=O)[C@H]1CCN(C(=O)C#CCN(C)C)C1)C(=O)N1CCC[C@H](N1)C(=O)OCC(C)(C)C2 , what IC50 was observed with KRAS G13D (Homo sapiens (Human), UniProt P01116+P62937, G13D)?
Response: 100 to 1000 nM

Query: Given the entry C=CC(=O)N1C[C@@H]2CN(C(=O)N(C)[C@H](C(=O)N[C@H]3Cc4nc(cs4)-c4ccc5c(c4)c(c(-c4cccnc4[C@H](C)OC)n5CC)CC(C)(C)COC(=O)[C@@H]4CCCN(N4)C3=O)C(C)C)C[C@@H]2C1 (atropisomer, axis not shown) , what IC50 was observed with KRAS G13D (Homo sapiens (Human), UniProt P01116+P62937, G13D)?
Response: 100 to 1000 nM

Query: Given the entry C=CS(=O)(=O)N1CC[C@H](C(=O)N(C)[C@H](C(=O)N[C@H]2Cc3nc(cs3)-c3ccc4c(c3)c(c(-c3cccnc3[C@H](C)OC)n4CC)CC(C)(C)COC(=O)[C@@H]3CCCN(N3)C2=O)C(C)C)C1 (atropisomer, axis not shown) , what IC50 was observed with KRAS G13D (Homo sapiens (Human), UniProt P01116+P62937, G13D)?
Response: > 10000 nM
